Record form. Attribute: ELISA signal (read at 450 nm). Fill in for each entry.
target: T1, cyclo(CGGTTEQGG) (SEQ ID NO: 2) (cyclic peptide: head to tail cyclization (amide condensation of the linear peptide)); experiment: indirect ELISA, peptide coated 0.1 µg/well, neat hybridoma supernatant
T1 construct: Coated on ELISA plates
T1 peptide: CGGTTEQGG
Answers are plain numbers, in absorbance at 450 nm.

Consider the worked cases shown below.
binder: 9C5 (antibody, V domains shown, IgG3, kappa; also called clone 9C5; antibody 6) VH: EVQLVESGGGLVKPGGSLKLSCAASGFTFSDYYMYWVRQTPEKRLEWVATISDGGSYTSYPDSVKGRFTISRDNAKNNLYLQMSSLRSEDTAMYYCARDYYGSSSYTSGFAYWGQGTLVTVSA VL: DVLMTQTPLSLPVSLGDQASISCRSSQSIVHSNGNTYLEWYLQKPGQSPKLLIYKVSNRFSGVPDRFSGSGSGTDFTLKISRVEAEDLGVYYCFQGSHVPGTFGGGTKLEIK
assay.readout: ELISA signal (read at 450 nm)
observed.value: 2.29

binder: 11F3 (antibody, V domains shown, IgG1, kappa; also called clone 11F3; antibody 3) VH: QIQLVQSGPELKKPGETVKISCKASGYTFTDYSMHWVKHSPGKGLKWMGWINTETGEPTYADDFKGRFAFSLETSASTAYLQINNLKNEDTATYFCARGYGNWFAYWGQGTLVTVSA VL: QIVLTQSPAIMSASLGERVTMTCTASSSVSSSYLHWYQQKPGSSPKLWIYSTSNLASGVPARFSGSGSGTSYSLTISSMEAEDAATYYCHQYHRSPLTFGAGTKLELK
assay.readout: ELISA signal (read at 450 nm)
observed.value: 1.1

binder: 3H5 (antibody, V domains shown, IgG1, lambda; also called clone 3H5; antibody 4) VH: QIQLVQSGPELKKPGETVKISCKASGYTFTDYSMHWVKQAPGKGLKWMGWINTETGEPTYADDFKGRFAFSLETSASTAYLQINNLKNEDTATYFCASRRWYPYYFDYWGQGTTLTVSS VL: QAVVTQESALTTSPGETVTLTCRSSTGAVTTSNYANWVQEKPDHLFTGLIGGPNNRAPGVPARFSGSLIGDKAALTITGAQTEDEAIYFCALWYSNHWVFGGGTKLTVL
assay.readout: ELISA signal (read at 450 nm)
observed.value: 2.83

So what's the measured ELISA signal (read at 450 nm) for this one? 6C5 (antibody, V domains shown, IgG1, kappa; also called Antibody 6C5) VH: EVKLVESGGGLVQPGGSLKLSCATSGFTFSDYYMYWVRQTPEKRLEWVAYISNGGGSTYYPDTVKGRFTISRDNAKNTLYLQMSRLKSEDTAMYYCAREGGTAWFAYWGQGTLVTVSA VL: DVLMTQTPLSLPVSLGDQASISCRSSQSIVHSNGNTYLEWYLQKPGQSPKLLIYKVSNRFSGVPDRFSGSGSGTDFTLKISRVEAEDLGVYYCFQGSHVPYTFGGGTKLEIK
1.1
